Species: Rattus norvegicus
Assay: Open TG-GATES - Regimen: Daily Repeat
Assay type: toxicity, organism-based, Sprague-Dawley
Set-up: regimen Daily Repeat, gender Male, age 6 weeks
Conditions: in vivo, po, 0 mg/kg, 72 h, tissue Plasma, route gavage, dose level Control, time 3 day
In this section, each of the molecules is paired with its reported log10 of TBIL.
measurement.name: log10 of TBIL (log10 of the value in mg/dL)

{"columns": ["molecule", "measurement.name", "readout.number"],
 "data": [
  ["CN(C)CCCN1c2ccccc2CCc2ccccc21 [IMIPRAMINE]", "log10 of TBIL", -1.25],
  ["CN1C(=O)CN=C(c2ccccc2)c2cc(Cl)ccc21 [DIAZEPAM]", "log10 of TBIL", -0.52],
  ["NC(N)=Nc1nc(CSCCC(N)=NS(N)(=O)=O)cs1 [FAMOTIDINE]", "log10 of TBIL", -1.00],
  ["O=C(CCCN1CCC(O)(c2ccc(Cl)cc2)CC1)c1ccc(F)cc1 [HALOPERIDOL]", "log10 of TBIL", -0.70],
  ["CCOc1ccc(NC(=O)CC(C)O)cc1 (stereo not drawn) [BUCETIN]", "log10 of TBIL", -1.32],
  ["CCOC(=O)CCC(=O)O[C@H]1[C@H](O[C@@H]2[C@@H](C)[C@H](O[C@H]3C[C@@](C)(OC)[C@@H](O)[C@H](C)O3)[C@@H](C)C(=O)O[C@H](CC)[C@@](C)(O)[C@H](O)[C@@H](C)C(=O)[C@H](C)C[C@@]2(C)O)O[C@H](C)C[C@@H]1N(C)C [ERYTHROMYCIN ETHYLSUCCINATE]", "log10 of TBIL", -1.80],
  ["NNC(=O)c1ccncc1 [ISONIAZID]", "log10 of TBIL", -0.52],
  ["CN(C)CCN(Cc1cccs1)c1ccccn1", "log10 of TBIL", -1.92]
]}

====

Species: Rattus norvegicus
Assay: Open TG-GATES - Regimen: Daily Repeat
Type: toxicity, organism-based, Sprague-Dawley
Set-up: regimen Daily Repeat, gender Male, age 6 weeks
Details: in vivo, po, 300 mg/kg, 72 h, tissue Blood, route gavage, dose level Middle, time 3 day
In this section, each of the compounds is paired with its reported WBC.
measurement.name: WBC

{"columns": ["compound", "result"],
 "data": [
  ["CCOC(=O)CCC(=O)O[C@H]1[C@H](O[C@@H]2[C@@H](C)[C@H](O[C@H]3C[C@@](C)(OC)[C@@H](O)[C@H](C)O3)[C@@H](C)C(=O)O[C@H](CC)[C@@](C)(O)[C@H](O)[C@@H](C)C(=O)[C@H](C)C[C@@]2(C)O)O[C@H](C)C[C@@H]1N(C)C [ERYTHROMYCIN ETHYLSUCCINATE]", "94.1 x10_2/uL"],
  ["COc1ccc2[nH]c([S+]([O-])Cc3ncc(C)c(OC)c3C)nc2c1 (stereo not given)", "94 x10_2/uL"],
  ["NC(N)=Nc1nc(CSCCC(N)=NS(N)(=O)=O)cs1", "106.3 x10_2/uL"],
  ["COC1=CC(=O)C[C@@H](C)[C@]12Oc1c(Cl)c(OC)cc(OC)c1C2=O", "99.2 x10_2/uL"],
  ["CCOc1ccc(NC(=O)CC(C)O)cc1 (stereo not given)", "109.9 x10_2/uL"]
]}

Data provenance: ChEMBL document CHEMBL3885861
